Data origin, for the record: patent US20250145711A1

- subject.of.test: T1, CD3 on primary human pan T cells (human, UniProt P07766 23-207)
- T1 construct: on cells it stands in the TCR/CD3 complex; also called Pan T-cells (CD3-positive); endogenous CD3
- run.description: flow cytometry, pan T-cells
Exercise: state measured % Binding retained on T-cells, 65° C. for each of the binders provided.
Give bare numbers, in fraction.

CD3B2029 (scFv) scFv: QVQLVQSGAEVKKPGSSVKVSCKASGYTFTRSTMHWVKQAPGQGLEWIGYINPSSAYTNYNQKFQGRVTLTADKSTSTAYMELSSLRSEDTAVYYCASPQVHYDYNGFPYWGQGTLVTVSSGGSEGKSSGSGSESKSTGGSEIVLTQSPATLSASPGERVTLSCSASSSVSYMNWYQQKPGQSPRRWIYDSSKLASGVPARFSGSGSGRDYTLTISSLEPEDFAVYYCQQWSRNPPTFGGGTKVEIK : 0.329
CD3B2085 (scFv) scFv: QVQLVQSGAEVKKPGSSVKVSCKASGYTFTRSTMHWVRQAPGQGLEWMGYINPSSAYTNYAQKFQGRVTLTADKSTSTAYMELSSLRSEDTAVYYCASPQVHYDYNGFPYWGQGTLVTVSSGGSEGKSSGSGSESKSTGGSEIVLTQSPATLSASPGERVTLSCSASSSVSYMNWYQQKPGTAPRRWIYDSSKLASGVPARFSGSGSGRDYTLTISSLEPEDFAVYYCQQWSRNPPTFGGGTKVEIK : 0.385

Moving on to the next binder.
For record CD3B2031 (scFv) scFv: QVQLVQSGAEVKKPGSSVKVSCKASGYTFTRSTMHWVKQAPGQGLEWMGYINPSSAYTNYNQKFQGRVTLTADKSTSTAYMELSSLRSEDTAVYYCASPQVHYDYNGFPYWGQGTLVTVSSGGSEGKSSGSGSESKSTGGSEIVLTQSPATLSASPGERVTLSCSASSSVSYMNWYQQKPGTAPRRWIYDSSKLASGVPARFSGSGSGRDYTLTISSLEPEDFAVYYCQQWSRNPPTFGGGTKVEIK the listed % Binding retained on T-cells, 65° C. is 0.543
